measured target: Histone deacetylase 1 (Homo sapiens)
Sequence (Q13547 whole entry): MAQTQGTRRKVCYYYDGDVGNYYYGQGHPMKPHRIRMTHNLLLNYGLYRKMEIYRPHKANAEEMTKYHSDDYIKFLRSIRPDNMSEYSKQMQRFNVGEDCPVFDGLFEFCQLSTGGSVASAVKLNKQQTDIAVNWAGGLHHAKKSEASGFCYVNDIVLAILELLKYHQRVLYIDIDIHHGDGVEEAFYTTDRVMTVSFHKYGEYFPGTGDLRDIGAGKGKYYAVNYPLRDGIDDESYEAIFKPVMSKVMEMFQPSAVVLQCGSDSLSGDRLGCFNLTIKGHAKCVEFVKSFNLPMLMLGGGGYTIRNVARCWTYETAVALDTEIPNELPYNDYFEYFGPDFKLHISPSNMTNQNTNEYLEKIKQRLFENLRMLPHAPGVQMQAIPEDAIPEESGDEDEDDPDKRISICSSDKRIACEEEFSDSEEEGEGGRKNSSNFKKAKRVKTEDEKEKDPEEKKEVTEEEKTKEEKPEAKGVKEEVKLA
pIC50: −log10 of the molar value.

{"chemical string": "C=CCCCCCC[n+]1cccc(CCCCCCCCCCCC[n+]2cccc(CCCC=C)c2)c1.[Cl-].[I-]", "pIC50": 5.73}

====

Test system: U-937
measurement notes: Increase in histone H3 acetylation in U937 cells at 5 uM after 24 hrs by Western blot analysis
Type: cell-based
assay context: Homo sapiens
Activity calls are given as the source filed them. No cut-off for these calls is given here.

{"chemical string": "C=CCCCCCC[n+]1cccc(CCCCCCCCCCCC[n+]2cccc(CCCC=C)c2)c1.[Cl-].[I-]", "Activity": "Active"}
{"chemical string": "C=CCCCCCCc1ccc[n+](CCCCCCCCCCCCCc2ccc[n+](CCCCCCC=C)c2)c1", "Activity": "Active"}
{"chemical string": "c1cc2c[n+](c1)CCCCCCCCCCCCCc1ccc[n+](c1)CCCCCCCCCCCC2", "Activity": "Active"}
{"chemical string": "C=CCCCCCCc1ccc[n+](CCCCCCCCCCCCc2ccc[n+](CCCCCCC=C)c2)c1.[Cl-].[I-]", "Activity": "Active"}
{"chemical string": "c1cc2c[n+](c1)CCCCCCCCCCCCCc1ccc[n+](c1)CCCCCCCCCCC2", "Activity": "Active"}
{"chemical string": "O=C(CCCCCCC(=O)Nc1ccccc1)NO", "Activity": "Active"}
{"chemical string": "C=CCCCCCC[n+]1cccc(CCCCCCCCCCCC[n+]2cccc(CCCCC=C)c2)c1.[Cl-].[I-]", "Activity": "Active"}
{"chemical string": "C=CCCCCCC[n+]1cccc(CCCCCCCCCCCCC[n+]2cccc(CCCCC=C)c2)c1", "Activity": "Active"}
{"chemical string": "C=CCCCCCC[n+]1cccc(CCCCCCCCCCCCC[n+]2cccc(CCCC=C)c2)c1.[Cl-].[I-]", "Activity": "Active"}
{"chemical string": "Nc1ccccc1NC(=O)c1ccc(CNC(=O)OCc2cccnc2)cc1", "Activity": "Active"}
